experimental_target: Estrogen receptor (Homo sapiens, UniProt P03372)
Sequence (P03372 whole entry): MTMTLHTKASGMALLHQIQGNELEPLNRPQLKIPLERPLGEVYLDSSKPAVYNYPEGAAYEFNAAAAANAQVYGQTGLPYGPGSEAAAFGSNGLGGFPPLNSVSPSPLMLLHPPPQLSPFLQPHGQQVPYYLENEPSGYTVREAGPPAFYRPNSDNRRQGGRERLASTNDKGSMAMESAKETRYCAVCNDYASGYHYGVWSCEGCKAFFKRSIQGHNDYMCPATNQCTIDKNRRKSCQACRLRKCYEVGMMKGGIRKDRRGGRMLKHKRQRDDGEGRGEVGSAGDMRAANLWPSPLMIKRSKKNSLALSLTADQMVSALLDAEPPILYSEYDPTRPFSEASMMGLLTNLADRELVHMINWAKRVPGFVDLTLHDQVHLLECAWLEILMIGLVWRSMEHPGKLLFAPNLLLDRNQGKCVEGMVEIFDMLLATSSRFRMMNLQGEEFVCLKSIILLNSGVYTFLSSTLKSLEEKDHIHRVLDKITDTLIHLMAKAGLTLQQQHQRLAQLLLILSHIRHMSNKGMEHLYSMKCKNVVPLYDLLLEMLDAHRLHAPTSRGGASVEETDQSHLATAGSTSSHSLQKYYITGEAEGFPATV
experiment: Binding affinity to ER alpha (unknown origin) by LanthaScreen TR-FRET competitive binding assay
Mark each entry met if its IC50 sits below 6 nM, and not met for all others.

INSERT INTO results (structure_smiles, assigned_class) VALUES
  ('COc1cc(F)ccc1-c1c(Cc2ccc(/C=C/C(=O)O)cc2)c2ccc(O)cc2oc1=O', 'not met'),
  ('Cc1cc(F)ccc1-c1c(-c2ccc(/C=C/C(=O)O)cc2)c2ccc(O)cc2oc1=O', 'met'),
  ('O=C(O)/C=C/c1ccc(Cc2c(-c3ccc(Cl)cc3)c(=O)oc3cc(O)ccc23)cc1', 'met'),
  ('O=C(O)/C=C/c1ccc(Cc2c(-c3ccc(F)cc3)c(=O)oc3cc(O)ccc23)cc1', 'not met');

====

experiment: Thermodynamic solubility of the compound in 0.1 M aqueous phosphate buffer at 25 degC at pH 7.4 after 24 hrs
Assay type: physicochemical
condition_details: read-out: Therm_solubility
Attribute: solubility thermodynamic at 24 h
result_type: solubility thermodynamic at 24 h

INSERT INTO results (structure_smiles, value_observed) VALUES
  ('Cc1cc(F)ccc1-c1c(Oc2ccc(/C=C/C(=O)O)cc2)c2ccccc2oc1=O', '> 1500 µM'),
  ('Cc1cc(OC(F)(F)F)ccc1-c1c(Oc2ccc(/C=C/C(=O)O)cc2)c2ccccc2oc1=O', '> 470 µM'),
  ('Cc1cc(F)ccc1-c1c(Oc2ccc(/C=C/C(=O)O)cc2)c2ccc(O)cc2oc1=O', '> 2000 µM');
